- experimental-protocol: Toxicity liver stage against HepG2, at 10uM
- Assay type: cell-based
- Set-up: test concentration 10 uM, cell line HepG2-A16-CD81EGFP
- experimental-conditions: human, HepG2-A16-CD81EGFP cells; read-out: INHIBITION
measurement-kind: cytotoxicity at 10 µM (%)
Answers are plain numbers, in %.

Example entries begin here.
[
  {
    "molecule": "CNC(=O)[C@@]12CCO[C@@H]1CCN(S(=O)(=O)c1cccc(C)c1)C2",
    "u": "%",
    "cytotoxicity at 10 µM": -1.8
  },
  {
    "molecule": "O=C1CCCN1CCN1CCCCC1Cn1cncn1 (configuration not stated)",
    "u": "%",
    "cytotoxicity at 10 µM": -0.225
  },
  {
    "molecule": "O=C(COC[C@@H]1CC[C@H]2[C@H](CCN2Cc2ccco2)O1)N1CCCC1",
    "u": "%",
    "cytotoxicity at 10 µM": -161
  }
]

// each molecule listed below needs its cytotoxicity at 10 µM
1. CS(=O)(=O)N1CCO[C@@H]2CCN(Cc3ccncc3)CC[C@H]21
2. CC(=O)N1CCN(C(=O)C2SCCc3sccc32)CC1 (configuration not stated)
3. CCc1cnc(NC2CCc3c(ccc(=O)n3C)C2)nc1 (configuration not stated)

1. 1.15
2. -11.5
3. -125

// each molecule listed below needs its cytotoxicity at 10 µM
1. Cc1ccc(C(=O)NCCCC2(C3OCCO3)CCOCC2)cc1C
2. Cc1nnc(SCCCNC(=O)Nc2ccc3c(c2)OCO3)s1
3. O=C(NCCOc1ccc(F)c(F)c1)NCc1ccncc1
4. Cc1nc(C)n(C2CCCN(C(=O)Cc3csc(C(C)C)n3)C2)n1 (configuration not stated)
5. c1cnc(N2CCOCC3(CN(Cc4nccs4)CCO3)C2)nc1 (configuration not stated)
6. O=C1NC2(CCc3ccccc31)CCN(C(=O)c1cccnc1)C2 (configuration not stated)

1. 1.48
2. 7.28
3. -8.25
4. -15.8
5. 1.5
6. 5.5

Where do the numbers come from? From ChEMBL document CHEMBL4513216.
